# System: HEK-293T
# Test summary: Multiplex assay against HEK293T
# Type: toxicity, cell-based
# Condition set: human, 12 h, 10 µM, compound concentration 10 uM, replicate 2
Label condition met when Population Membrane Permeable-Phenotype (%) is strictly below 6%; at or above that, label condition not met.

- Compound: "N#CCNC(=O)c1ccc(-c2ccnc(Nc3ccc(N4CCOCC4)cc3)n2)cc1"
  Target desc: "HEK-293T"
  Label value: "condition not met"

Req: Dear colleague, could you confirm whether Population Membrane Permeable-Phenotype (%) of Cc1c(Nc2ccc(S(=O)(=O)N3CCN(C)CC3)cc2F)nc2ccc(Nc3cnn(C4CC4)c3)cn2c1=O falls below 6%? Thanks.
Resp: condition met

Req: Problem: For the compound C[C@@H](Oc1cc(-n2cnc3ccc(CN4CCN(C)CC4)cc32)sc1C(N)=O)c1ccccc1C(F)(F)F , is Population Membrane Permeable-Phenotype (%) under 6%?
Resp: condition not met

Req: Please determine if CCOC(=O)CCNc1cc(N2CCc3ccccc3CC2)nc(-c2ccccn2)n1 is below 6% in terms of Population Membrane Permeable-Phenotype (%).
Resp: condition met

Req: Is it true that Population Membrane Permeable-Phenotype (%) reported for CN1C(=O)[C@@H](NC(=O)c2cc3ccccc3[nH]2)N=C(c2ccccc2)c2ccccc21 [DEVAZEPIDE] is less than 6%?
Resp: condition not met

Req: Population Membrane Permeable-Phenotype (%) strictly < 6% for this compound? CC[C@@]1(O)C(=O)OCc2c1cc1n(c2=O)Cc2cc3ccccc3nc2-1
Resp: condition met

Req: Could you please tell me whether Population Membrane Permeable-Phenotype (%) recorded for Oc1cccc(-c2nc(N3CCOCC3)c3oc4ncccc4c3n2)c1 is less than 6%?
Resp: condition not met

Req: Would you kindly verify if Population Membrane Permeable-Phenotype (%) of Cc1c(P(=S)(c2ccccc2)c2ccccc2)n2ccccc2[n+]1C/C=C/c1ccccc1.[Br-] is strictly less than 6%?
Resp: condition met
